Data provenance: the MegaScale stability set (Tsuboyama et al. 2023)

B1: EEHEE_rd4_0363 (parent)
chain: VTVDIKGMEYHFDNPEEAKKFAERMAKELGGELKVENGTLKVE

Variants of: B1
Experiment: folding stability dG (cDNA display proteolysis); higher = more stable
Settings: PBS, room temperature
EXPERIMENTAL ENDPOINT: folding stability dG (kcal/mol)
Use kcal/mol as the unit, but write only the number.

Example results:
folding stability dG recorded for this variant, `Y10F` , is 1.99

The recorded folding stability dG for entry `T39Y` equals 1.95

Query variant follows.
Measured folding stability dG of `M8Q` : 2.05
